System: brains, heart, liver, muscle, and DRG of the NHPs
ASSAY_NOTES: Maturation of TTM-001 and TTM-002 capsids, NGS enrichment in NHP tissues
Format: in vivo
CONDITION_SUMMARY: NHP muscle; relative to AAV9 control
Excerpt: This Example describes maturation of the AAV9 capsid variants, TTM-001 (SEQ ID NO: 981 (amino acid) and 983 (DNA), comprising SEQ ID NO: 941 (encoded by SEQ ID NO: 942)) and TTM-002 (SEQ ID NO: 982 (amino acid) and 984 (DNA), comprising SEQ ID NO: […] (encoded by SEQ ID NO: 944)) in NHPs to further enhance their transduction and biodistribution in the central nervous system as well as other tissues, and evolve the AAV capsid variants to provide further cross-species compatibility. […]
I'd be grateful if you could share measured Fold Enrichment relative to AAV9, Muscle (NHP) for these entries.
Just the number in fold, nothing appended.

The sequence identified as KTEPTSGSPHSKAQNQQT registered its Fold Enrichment relative to AAV9, Muscle (NHP) at 0.000

The sequence identified as KTIDGSGSPHSKSQNHQT registered its Fold Enrichment relative to AAV9, Muscle (NHP) at 0.000

The sequence identified as KTINVSGSPHSKAQGQQT registered its Fold Enrichment relative to AAV9, Muscle (NHP) at 0.000

The sequence identified as KTVNASGSPHSKAQNQLT registered its Fold Enrichment relative to AAV9, Muscle (NHP) at 0.000

The sequence identified as KTINGSGSPHSKSQSQLT registered its Fold Enrichment relative to AAV9, Muscle (NHP) at 0.000

The sequence identified as KTINGSGSPHSKAQGSLT registered its Fold Enrichment relative to AAV9, Muscle (NHP) at 0.013

The sequence identified as KTINGSGSPHSKAQIGMT registered its Fold Enrichment relative to AAV9, Muscle (NHP) at 0.000

The sequence identified as KTINGSGSPHSKAQVPAT registered its Fold Enrichment relative to AAV9, Muscle (NHP) at 0.000

The sequence identified as KTINGGGSPHSKAQRQQT registered its Fold Enrichment relative to AAV9, Muscle (NHP) at 0.000

The sequence identified as KAINGSGSPHSKAQSQQI registered its Fold Enrichment relative to AAV9, Muscle (NHP) at 0.000

The sequence identified as KTINGSGSPHSKAQAIHT registered its Fold Enrichment relative to AAV9, Muscle (NHP) at 212.32

----------
Tested on: brain, spinal cord, and DRG of the NHPs
ASSAY_NOTES: NGS fold enrichment of synthetic library (passage 3) in NHPs, first cross-species screen
Type: in vivo, cynomolgus macaques (Macaca fascicularis)
CONDITION_SUMMARY: synthetic library passage 3, intravenous, RNA from brain of NHPs, NGS, relative to wild-type AAV9
MEASUREMENT_TYPE: Fold enrichment over AAV9 in the brain of NHPs (fold)
Just the number in fold, nothing appended.

The sequence identified as GTEQTRQSGQNQQT registered its Fold enrichment over AAV9 in the brain of NHPs at 1.188

The sequence identified as GSGQASSKSANQQT registered its Fold enrichment over AAV9 in the brain of NHPs at 1.339

The sequence identified as GSGQTARNGINQQT registered its Fold enrichment over AAV9 in the brain of NHPs at 1.192

The sequence identified as GSGQNQQTGSSSRV registered its Fold enrichment over AAV9 in the brain of NHPs at 1.176

The sequence identified as GSLYGQSLGQNQQT registered its Fold enrichment over AAV9 in the brain of NHPs at 1.348

The sequence identified as GASSLATSGQNQQT registered its Fold enrichment over AAV9 in the brain of NHPs at 1.337

The sequence identified as GSGQRMADIGNQQT registered its Fold enrichment over AAV9 in the brain of NHPs at 1.233

The sequence identified as GSSRVPVSGQNQQT registered its Fold enrichment over AAV9 in the brain of NHPs at 1.385

The sequence identified as GSGISSRNMQNQQT registered its Fold enrichment over AAV9 in the brain of NHPs at 1.291

The sequence identified as GSNAQSAHGQNQQT registered its Fold enrichment over AAV9 in the brain of NHPs at 1.371

The sequence identified as GSGSSSMSFQNQQT registered its Fold enrichment over AAV9 in the brain of NHPs at 1.279

The sequence identified as GSRTYQVSGQNQQT registered its Fold enrichment over AAV9 in the brain of NHPs at 1.164

The sequence identified as GSRETSLSGQNQQT registered its Fold enrichment over AAV9 in the brain of NHPs at 1.373

The sequence identified as GSGTSGKTGKNQQT registered its Fold enrichment over AAV9 in the brain of NHPs at 1.333

The sequence identified as GSIAMTSHGQNQQT registered its Fold enrichment over AAV9 in the brain of NHPs at 1.178

The sequence identified as GLHGMTLSGQNQQT registered its Fold enrichment over AAV9 in the brain of NHPs at 1.226

The sequence identified as GQLVTFTSGQNQQT registered its Fold enrichment over AAV9 in the brain of NHPs at 1.331

The sequence identified as GSGIPAPRLQNQQT registered its Fold enrichment over AAV9 in the brain of NHPs at 1.273

The sequence identified as GSGSKQNALQNQQT registered its Fold enrichment over AAV9 in the brain of NHPs at 1.216

The sequence identified as GSRTVPVYGQNQQT registered its Fold enrichment over AAV9 in the brain of NHPs at 1.371

The sequence identified as GSGLALERSQNQQT registered its Fold enrichment over AAV9 in the brain of NHPs at 1.311

The sequence identified as GSGIGSHIPQNQQT registered its Fold enrichment over AAV9 in the brain of NHPs at 1.319

The sequence identified as GSGQNQQTMANGQR registered its Fold enrichment over AAV9 in the brain of NHPs at 1.394

The sequence identified as GSGQNVSMQVNQQT registered its Fold enrichment over AAV9 in the brain of NHPs at 1.341

The sequence identified as GSQSTLGLGQNQQT registered its Fold enrichment over AAV9 in the brain of NHPs at 1.204

The sequence identified as GSGQNQQHPSTQQT registered its Fold enrichment over AAV9 in the brain of NHPs at 1.205

The sequence identified as GSGQLSGTPQNQQT registered its Fold enrichment over AAV9 in the brain of NHPs at 1.185

The sequence identified as GSGQLPRQMTNQQT registered its Fold enrichment over AAV9 in the brain of NHPs at 1.376

The sequence identified as GSGIVTKLGQNQQT registered its Fold enrichment over AAV9 in the brain of NHPs at 1.174

The sequence identified as GSGQNQQTNLGHTT registered its Fold enrichment over AAV9 in the brain of NHPs at 1.383

The sequence identified as GNRDRPSSGQNQQT registered its Fold enrichment over AAV9 in the brain of NHPs at 1.239

The sequence identified as GSGQALSSSGNQQT registered its Fold enrichment over AAV9 in the brain of NHPs at 1.351

The sequence identified as GSGQTRMPLANQQT registered its Fold enrichment over AAV9 in the brain of NHPs at 1.296
